procedure.details: activity coefficient (dimensionless); of the first substance listed, at infinite dilution; xn = mol fraction of the nth substance listed
measurement.context: 348.2 K; 101 kPa; Liquid; Chromatography; x1 = 0
measured.property: activity coefficient
Simply state the number, no unit and no words.

Query block: Which activity coefficient reading was recorded for the compound C1CCCCC1 [cyclohexane] + CCCCn1cc[n+](C)c1.Cc1ccc(S(=O)(=O)[O-])cc1 ?
Result block: 14.6

Query block: May I ask what activity coefficient has been recorded for CCCCCCCC [octane] + CCCCn1cc[n+](C)c1.Cc1ccc(S(=O)(=O)[O-])cc1 ?
Result block: 57.7

Query block: GET /values?readout=activity coefficient&item= C#CCCCC [1-hexyne] + CCCCn1cc[n+](C)c1.Cc1ccc(S(=O)(=O)[O-])cc1
Result block: 3.78

Query block: Field request: activity coefficient | item: C#CCCCCCC [1-octyne] + CCCCn1cc[n+](C)c1.Cc1ccc(S(=O)(=O)[O-])cc1
Result block: 7.28

Query block: Look at this compound and give its reported activity coefficient. C=CCCCCCC [oct-1-ene] + CCCCn1cc[n+](C)c1.Cc1ccc(S(=O)(=O)[O-])cc1
Result block: 31

Query block: Would you kindly share the measured activity coefficient for CO [methanol] + CCCCn1cc[n+](C)c1.Cc1ccc(S(=O)(=O)[O-])cc1 ?
Result block: 0.219

Query block: Any idea what its activity coefficient is? The compound is C1CCCCCC1 [cycloheptane] + CCCCn1cc[n+](C)c1.Cc1ccc(S(=O)(=O)[O-])cc1
Result block: 16.3

Query block: Would you mind telling me what activity coefficient value was observed for C=CCCCC [hex-1-ene] + CCCCn1cc[n+](C)c1.Cc1ccc(S(=O)(=O)[O-])cc1 ?
Result block: 16.6

Query block: May I ask what activity coefficient has been recorded for COC(C)(C)C [2-methoxy-2-methylpropane] + CCCCn1cc[n+](C)c1.Cc1ccc(S(=O)(=O)[O-])cc1 ?
Result block: 7.84

Query block: Quick one: activity coefficient for CCCOCCC [dipropyl ether] + CCCCn1cc[n+](C)c1.Cc1ccc(S(=O)(=O)[O-])cc1 ?
Result block: 15.2

Query block: Item CCCCCCCCCC [decane] + CCCCn1cc[n+](C)c1.Cc1ccc(S(=O)(=O)[O-])cc1 has what recorded activity coefficient?
Result block: 106

Query block: I would be grateful if you could share the reported activity coefficient for Cc1ccccc1C [1,2-dimethylbenzene] + CCCCn1cc[n+](C)c1.Cc1ccc(S(=O)(=O)[O-])cc1 .
Result block: 4.01

Query block: I would be grateful if you could share the reported activity coefficient for CCC(=O)CC [pentan-3-one] + CCCCn1cc[n+](C)c1.Cc1ccc(S(=O)(=O)[O-])cc1 .
Result block: 2.65

Query block: State the recorded activity coefficient for this entry: O [water] + CCCCn1cc[n+](C)c1.Cc1ccc(S(=O)(=O)[O-])cc1
Result block: 0.196

Query block: Fill blank: measured activity coefficient of the compound Cc1ccc(C)cc1 [1,4-dimethylbenzene] + CCCCn1cc[n+](C)c1.Cc1ccc(S(=O)(=O)[O-])cc1 is ____.
Result block: 4.64

Query block: activity coefficient for c1ccccc1 [benzene] + CCCCn1cc[n+](C)c1.Cc1ccc(S(=O)(=O)[O-])cc1 ?
Result block: 1.93

Query block: Param item = CC(C)=O [acetone] + CCCCn1cc[n+](C)c1.Cc1ccc(S(=O)(=O)[O-])cc1 ; retrieve measured activity coefficient.
Result block: 1.46

----------
procedure.details: activity coefficient (dimensionless); of the first substance listed, at infinite dilution; xn = mol fraction of the nth substance listed
measurement.context: 358.2 K; 101 kPa; Liquid; Chromatography; x1 = 0
Simple rule here: activity coefficient less than 3 is true, otherwise false.

Query block: For this compound, is activity coefficient lower than 3? C#CCCCCCC [1-octyne] + CCCCn1cc[n+](C)c1.Cc1ccc(S(=O)(=O)[O-])cc1
Result block: false

Query block: Is 3 strictly greater than the compound's reported activity coefficient? compound: CCCCCCCCCC [decane] + CCCCn1cc[n+](C)c1.Cc1ccc(S(=O)(=O)[O-])cc1
Result block: false

Query block: Strictly below 3 in activity coefficient? Cc1cccc(C)c1 [1,3-dimethylbenzene] + CCCCn1cc[n+](C)c1.Cc1ccc(S(=O)(=O)[O-])cc1
Result block: false

Query block: Does this compound meet the criterion activity coefficient < 3? CCO [ethanol] + CCCCn1cc[n+](C)c1.Cc1ccc(S(=O)(=O)[O-])cc1
Result block: true

Query block: Please indicate whether the reported activity coefficient of C#CCCCC [1-hexyne] + CCCCn1cc[n+](C)c1.Cc1ccc(S(=O)(=O)[O-])cc1 is strictly below 3.
Result block: false

Query block: Lab note: confirm whether the reported activity coefficient for this compound is below 3, equality not counting. compound: c1ccsc1 [thiophene] + CCCCn1cc[n+](C)c1.Cc1ccc(S(=O)(=O)[O-])cc1
Result block: true

----------
procedure.details: activity coefficient (dimensionless); of the first substance listed, at infinite dilution; xn = mol fraction of the nth substance listed
measurement.context: 338.2 K; 101 kPa; Liquid; Chromatography; x1 = 0
Give activity coefficient for every item shown.
Form: value (number only, do not type unit).

Query block: Fill in the blank: the reported activity coefficient of c1ccsc1 [thiophene] + CCCCn1cc[n+](C)c1.Cc1ccc(S(=O)(=O)[O-])cc1 is ____.
Result block: 1.11

Query block: Requested read-out: activity coefficient. Entry: COC(C)(C)C [2-methoxy-2-methylpropane] + CCCCn1cc[n+](C)c1.Cc1ccc(S(=O)(=O)[O-])cc1
Result block: 8.28

Query block: Look up activity coefficient for this compound: CCCCCCCC [octane] + CCCCn1cc[n+](C)c1.Cc1ccc(S(=O)(=O)[O-])cc1
Result block: 63.9

Query block: For the compound C=CCCC [1-pentene] + CCCCn1cc[n+](C)c1.Cc1ccc(S(=O)(=O)[O-])cc1 , what activity coefficient is on record?
Result block: 13.7

Query block: Give the measured activity coefficient of C=CCCCCC [1-heptene] + CCCCn1cc[n+](C)c1.Cc1ccc(S(=O)(=O)[O-])cc1 .
Result block: 24.2

Query block: # activity coefficient lookup, item C1CCCCCCC1 [cyclooctane] + CCCCn1cc[n+](C)c1.Cc1ccc(S(=O)(=O)[O-])cc1
Result block: 21.3

Query block: // returns reported activity coefficient for input CCc1ccccc1 [ethylbenzene] + CCCCn1cc[n+](C)c1.Cc1ccc(S(=O)(=O)[O-])cc1
Result block: 4.45

Query block: Data request, read-out activity coefficient, for C1CCCCCC1 [cycloheptane] + CCCCn1cc[n+](C)c1.Cc1ccc(S(=O)(=O)[O-])cc1
Result block: 17.7

Query block: Consider the compound CCC(=O)CC [pentan-3-one] + CCCCn1cc[n+](C)c1.Cc1ccc(S(=O)(=O)[O-])cc1 and give its measured activity coefficient.
Result block: 2.68

Query block: I'd like to know its activity coefficient. The compound in question is C=CCCCCCC [oct-1-ene] + CCCCn1cc[n+](C)c1.Cc1ccc(S(=O)(=O)[O-])cc1
Result block: 33.1

Query block: Any idea what activity coefficient was measured for C#CCCCCC [1-heptyne] + CCCCn1cc[n+](C)c1.Cc1ccc(S(=O)(=O)[O-])cc1 ?
Result block: 5.13

Query block: GET /values?readout=activity coefficient&item= C1CCOC1 [tetrahydrofuran] + CCCCn1cc[n+](C)c1.Cc1ccc(S(=O)(=O)[O-])cc1
Result block: 1.88

Query block: If you can, please state the reported activity coefficient value of Cc1cccc(C)c1 [1,3-dimethylbenzene] + CCCCn1cc[n+](C)c1.Cc1ccc(S(=O)(=O)[O-])cc1 .
Result block: 4.76

Query block: Quick one: activity coefficient of C1CCCC1 [cyclopentane] + CCCCn1cc[n+](C)c1.Cc1ccc(S(=O)(=O)[O-])cc1 ?
Result block: 11.3

Query block: Suppose we examine the compound CCO [ethanol] + CCCCn1cc[n+](C)c1.Cc1ccc(S(=O)(=O)[O-])cc1 ; what activity coefficient value has been reported?
Result block: 0.359

Query block: I would be grateful if you could share the reported activity coefficient for C1CCCCC1 [cyclohexane] + CCCCn1cc[n+](C)c1.Cc1ccc(S(=O)(=O)[O-])cc1 .
Result block: 16.3

Query block: Would you kindly share the measured activity coefficient for O [water] + CCCCn1cc[n+](C)c1.Cc1ccc(S(=O)(=O)[O-])cc1 ?
Result block: 0.191

Query block: Can you share its activity coefficient? I mean this compound: CCCCCCCCCC [decane] + CCCCn1cc[n+](C)c1.Cc1ccc(S(=O)(=O)[O-])cc1
Result block: 119

Query block: Entry under review: CCCCCCCCC [nonane] + CCCCn1cc[n+](C)c1.Cc1ccc(S(=O)(=O)[O-])cc1 . Reported activity coefficient?
Result block: 86.1

Query block: Dear colleague, I am looking for the recorded activity coefficient of the following compound: CCCOCCC [dipropyl ether] + CCCCn1cc[n+](C)c1.Cc1ccc(S(=O)(=O)[O-])cc1
Result block: 15.5

Query block: // lookup activity coefficient for CC(C)=O [acetone] + CCCCn1cc[n+](C)c1.Cc1ccc(S(=O)(=O)[O-])cc1
Result block: 1.48

Query block: Requested read-out: activity coefficient. Entry: CCCO [propan-1-ol] + CCCCn1cc[n+](C)c1.Cc1ccc(S(=O)(=O)[O-])cc1
Result block: 0.437

Query block: Record request: activity coefficient value, item C=CCCCC [hex-1-ene] + CCCCn1cc[n+](C)c1.Cc1ccc(S(=O)(=O)[O-])cc1
Result block: 18

Query block: Using the record for C#CCCCCCC [1-octyne] + CCCCn1cc[n+](C)c1.Cc1ccc(S(=O)(=O)[O-])cc1 , report its activity coefficient.
Result block: 7.12

Query block: Data request, read-out activity coefficient, for c1ccccc1 [benzene] + CCCCn1cc[n+](C)c1.Cc1ccc(S(=O)(=O)[O-])cc1
Result block: 1.96

Query block: Return reported activity coefficient; argument: CO [methanol] + CCCCn1cc[n+](C)c1.Cc1ccc(S(=O)(=O)[O-])cc1
Result block: 0.217

Query block: Entry CCCC(C)=O [pentan-2-one] + CCCCn1cc[n+](C)c1.Cc1ccc(S(=O)(=O)[O-])cc1 has what activity coefficient?
Result block: 2.68

Query block: Dear colleague, I am looking for the recorded activity coefficient of the following compound: Cc1ccc(C)cc1 [1,4-dimethylbenzene] + CCCCn1cc[n+](C)c1.Cc1ccc(S(=O)(=O)[O-])cc1
Result block: 4.73

Query block: Item Cc1ccccc1C [1,2-dimethylbenzene] + CCCCn1cc[n+](C)c1.Cc1ccc(S(=O)(=O)[O-])cc1 has what recorded activity coefficient?
Result block: 4.07

Query block: Sample CCOCC [diethyl ether] + CCCCn1cc[n+](C)c1.Cc1ccc(S(=O)(=O)[O-])cc1 — what was its activity coefficient?
Result block: 6.57

Query block: Quick one: activity coefficient of Cc1ccccc1 [toluene] + CCCCn1cc[n+](C)c1.Cc1ccc(S(=O)(=O)[O-])cc1 ?
Result block: 3.03

Query block: // lookup activity coefficient for C#CCCCC [1-hexyne] + CCCCn1cc[n+](C)c1.Cc1ccc(S(=O)(=O)[O-])cc1
Result block: 3.69
